The measured values listed here are drawn from ChEMBL document CHEMBL1201862.

# Tested on: SF-268
# PROTOCOL: NCI tumour cell line growth inhibition, 48 h
Active and inactive are the calls of the source. Cut-off read from the data, not from the text of the source: active = GI50 up to about 1.1 µM and inactive = higher.
Documented GI50 across a set of compounds

{"columns": ["COMPOUND", "RESULT"],
 "data": [
  ["COc1cc(/C=C2\\N=C(c3ccccc3)N(c3nc4c(Cl)cc(Cl)cc4s3)C2=O)ccc1O", "30.1 µM (inactive)"],
  ["CC(C)C(Sc1nc(-c2ccccc2)c(-c2ccccc2)[nH]1)c1n[nH]c(=S)n1-c1ccccc1 (stereo not drawn)", "29.4 µM (inactive)"]
]}

# evaluate next
Entry `C=C1[C@H]2O[C@H]2[C@@H](OC(C)=O)[C@@]2(C)[C@@H](OC(C)=O)C[C@@H](OC(=O)CCC)[C@@](C)(O)[C@@H]2[C@@H](OC(C)=O)[C@]2(O)[C@@H](C)C(=O)O[C@H]2[C@H]1Cl` ; assay system SF-268; GI50 recorded at > 100 µM (inactive)
